For each record, write down the corresponding IC50.
systemUnderTest: HIV-1 RT WT (Human immunodeficiency virus type 1 group M subtype B, UniProt P03366)
Construct: mutations that occur in the reverse transcriptase segment of the pol gene
protocolNotes: Reverse Transcriptase (RT) assay, wild type
Assay type: biochemical

Asked: Recorded IC50 of "CCN1c2ncc(CCOc3ccc4c(c3)CNC(=O)N4)cc2C(=O)N(C)c2cccnc21" , please.
Given back: 50 to 100 nM

Asked: Recorded IC50 of "CCN1c2ncc(CCOc3cccc4c3CC(=O)N4)cc2C(=O)N(C)c2cccnc21" , please.
Given back: 50 to 100 nM

Asked: Recorded IC50 of "CCN1c2ncc(CCOc3cccc4c3CN(C)C(=O)N4C)cc2C(=O)N(C)c2cccnc21" , please.
Given back: < 50 nM
